METHOD SUMMARY: Expansion of human CD34+cells measured after 4 days by FACS analysis
Assay type: functional, CD34-positive (myeloid/lymphoid) cell
REPORTED METRIC: fold change (FC)
Write the number on its own, no unit after it.

A selection of reference data follows.
| COMPOUND | fold change (FC) |
| --- | --- |
| CC1=C2[C@](O)(C[C@H]3[C@@H]4C[C@@H](O)[C@@]5(O)C[C@@H](O[C@@H]6O[C@H](CO)[C@@H](O[C@@H]7O[C@@H](C)[C@H](O[C@@H]8O[C@@H](C)[C@H](O)[C@@H](O)[C@H]8O)[C@@H](O)[C@H]7O)[C@H](O)[C@H]6O[C@@H]6O[C@@H](C)[C@H](O)[C@@H](O)[C@H]6O)CC[C@]5(C)[C@H]4CC[C@]23C)C(C[C@@H](C)CO[C@@H]2O[C@H](CO)[C@@H](O)[C@H](O)[C@H]2O)C1=O (stereo partly drawn) | 6.7 |
| C[C@H](CC[C@@]1(O)OC2C[C@H]3[C@@H]4C[C@@H](O)[C@@]5(O)C[C@@H](O[C@@H]6O[C@H](CO)[C@@H](O[C@@H]7O[C@@H](C)[C@H](O[C@@H]8O[C@@H](C)[C@H](O)[C@@H](O)[C@H]8O)[C@@H](O)[C@H]7O)[C@H](O)[C@H]6O[C@@H]6O[C@@H](C)[C@H](O)[C@@H](O)[C@H]6O)CC[C@]5(C)[C@H]4CC[C@]3(C)[C@@]2(O)[C@@H]1C)CO[C@@H]1O[C@H](CO)[C@@H](O)[C@H](O)[C@H]1O (stereo partly drawn) | 8.4 |

Now turn to the next compound.
Inquiry: What value of fold change (FC) has been recorded for this entry: "Cc1c(CC[C@@H](C)CO[C@@H]2O[C@H](CO)[C@@H](O)[C@H](O)[C@H]2O)oc2c1[C@@]1(C)CC[C@H]3[C@@H](CC=C4C[C@@H](O[C@@H]5O[C@H](CO)[C@@H](O)[C@H](O)[C@H]5O[C@@H]5O[C@@H](C)[C@H](O)[C@@H](O)[C@H]5O)CC[C@@]43C)[C@@H]1C2"
Reply text: 5.5

* * *

METHOD SUMMARY: Expansion of human CD34+cells measured after 4 days by FACS analysis
Type: functional, CD34-positive (myeloid/lymphoid) cell
REPORTED METRIC: fold change (FC)
Write the number on its own, no unit after it.

| COMPOUND | fold change (FC) |
| --- | --- |
| Cc1c(CC[C@@H](C)CO[C@@H]2O[C@H](CO)[C@@H](O)[C@H](O)[C@H]2O)oc2c1[C@@]1(C)CC[C@H]3[C@@H](C[C@@H](O)[C@@]4(O)C[C@@H](O[C@@H]5O[C@H](CO)[C@@H](O[C@@H]6O[C@@H](C)[C@H](O[C@@H]7O[C@@H](C)[C@H](O)[C@@H](O)[C@H]7O)[C@@H](O)[C@H]6O)[C@H](O)[C@H]5O[C@@H]5O[C@@H](C)[C@H](O)[C@@H](O)[C@H]5O)CC[C@]34C)[C@@H]1C2 | 7.7 |
| C[C@H](CCC(=O)[C@@H](C)C1C(=O)C[C@H]2[C@@H]3CC=C4C[C@@H](O[C@@H]5O[C@H](CO)[C@@H](O)[C@H](O)[C@H]5O[C@@H]5O[C@@H](C)[C@H](O)[C@@H](O)[C@H]5O)CC[C@]4(C)[C@H]3CC[C@]12C)CO[C@@H]1O[C@H](CO)[C@@H](O)[C@H](O)[C@H]1O (some centres undefined) | 8.4 |
| C/C(C(=O)CC[C@@H](C)CO[C@@H]1O[C@H](CO)[C@@H](O)[C@H](O)[C@H]1O)=C1/C(=O)C[C@H]2[C@@H]3CC=C4C[C@@H](O[C@@H]5O[C@H](CO)[C@@H](O)[C@H](O)[C@H]5O[C@@H]5O[C@@H](C)[C@H](O)[C@@H](O)[C@H]5O)CC[C@]4(C)[C@H]3CC[C@]12C | 5.7 |

Now turn to the next compound.
Inquiry: What value of fold change (FC) has been recorded for this entry: C[C@H](CC[C@@]1(O)OC2C[C@H]3[C@@H]4CC=C5C[C@@H](O[C@@H]6O[C@H](CO)[C@@H](O[C@@H]7O[C@H](CO)[C@H](O)[C@@H](O)[C@H]7O)[C@H](O)[C@H]6O[C@@H]6O[C@@H](C)[C@H](O)[C@@H](O)[C@H]6O)CC[C@]5(C)[C@H]4CC[C@]3(C)[C@@]2(O)[C@@H]1C)CO[C@@H]1O[C@H](CO)[C@@H](O)[C@H](O)[C@H]1O (some centres undefined)
Reply text: 8.8
